# Organism: Mus musculus
# assay.explanation: Oral potency tested by using anti-mescaline test
# Type: functional
measured.quantity: ED50

Example entries and their recorded answers appear below.
| compound | assay.value |
| --- | --- |
| Cl.Fc1ccc(COCC2CCN(Cc3ccc(OCc4ccccc4)cc3)CC2)cc1 | < 30 mg/kg |
| O.O=C(Cc1ccc(F)cc1)C1CCN(Cc2ccncc2)CC1.O=C(O)/C=C\C(=O)O | 10 mg/kg |
| COC(=O)c1ccc(CN2CCC(COCc3ccc(F)cc3)CC2)cc1.Cl | > 10 mg/kg |
| COc1cc(OCC2CCN(CC3CC3)CC2)cc(OC)c1OC.Cl | > 30 mg/kg |
| O=C(CC1CCN(Cc2ccc(C(F)(F)F)cc2)CC1)c1ccc(F)cc1 | 1.8 mg/kg |

Item: O=C(CC1CCN(CCc2ccc(F)cc2)CC1)c1ccc(F)cc1 | ED50: 0.13 mg/kg

Item: Fc1ccc(COCC2CCN(Cc3ccccc3)CC2)cc1.O=C(O)/C=C\C(=O)O | ED50: 14 mg/kg

Item: Cl.OC(CC1CCN(Cc2ccccc2)CC1)c1ccc(F)cc1 (stereo not given) | ED50: 5 mg/kg

Item: Fc1ccc(OCC2CCN(CCC3CC3)CC2)cc1.O=C(O)/C=C/C(=O)O | ED50: 3.1 mg/kg

Item: Cl.OC(CC1CCN(Cc2ccccc2)CC1)c1ccc(C(F)(F)F)cc1 (stereo not given) | ED50: > 30 mg/kg

----------
Consider the following compounds and their measured Ki readings.
# tested.target: Serotonin 2 (5-HT2) receptor (Mus musculus, UniProt Q02152+P34968+P35363)
# assay.explanation: In vitro binding affinity for serotonin 5-hydroxytryptamine (5-HT) 2 receptors
# Format: protein assay

| molecule | Ki |
| --- | --- |
| COc1ccc(OCC2CCN(CC3CC3)CC2)cc1.Cl.O | > 100 nM |
| Cl.Fc1ccc(COCC2CCN(Cc3ccc(-c4ccccc4)cc3)CC2)cc1 | > 1000 nM |
| O.O=C(CC1CCN(Cc2ccccc2)CC1)c1ccc(CO)cc1 | 438 nM |

Field: next compound
Item: O.OCc1ccc(OCC2CCN(CC3CC3)CC2)cc1 | Ki: > 100 nM

----------
# tested.target: Serotonin 2 (5-HT2) receptor (Mus musculus, UniProt Q02152+P34968+P35363)
# assay.explanation: In vitro binding affinity for serotonin 5-hydroxytryptamine (5-HT) 2 receptors
# Format: protein assay
Consider the following compounds and their measured Ki readings.

| compound | Ki |
| --- | --- |
| Cl.OC(CC1CCN(Cc2ccccc2)CC1)c1ccc(C(F)(F)F)cc1 (centres undefined) | > 0.1 µM |

Item: Br.CC(C)(C)c1ccc(C(=O)CC2CCN(CC3CC3)CC2)cc1.O | Ki: > 1 µM

Item: O.O=C(O)/C=C\C(=O)O.c1ccc(CN2CCC(COc3cccnc3)CC2)cc1 | Ki: > 10 µM

Item: N#Cc1ccc(C(=O)CC2CCN(CC3CC3)CC2)cc1.O=C(O)/C=C/C(=O)O | Ki: > 10 µM

----------
Consider the following molecules and their measured Ki readings.
# tested.target: Serotonin 2 (5-HT2) receptor (Mus musculus, UniProt Q02152+P34968+P35363)
# assay.explanation: In vitro binding affinity for serotonin 5-hydroxytryptamine (5-HT) 2 receptors
# Type: protein assay

Example entries and their recorded answers appear below.
| molecule | Ki |
| --- | --- |
| CCNc1ccc(OCC2CCN(CC3CC3)CC2)cc1.Cl.O | > 10000 nM |
| O.O=C(CC1CCN(Cc2ccccc2)CC1)c1ccc(O)cc1 | > 1000 nM |

Field: next molecule
Known value: Serotonin 2 (5-HT2) receptor (Mus musculus, UniProt Q02152+P34968+P35363) Ki of the molecule O.c1ccc2c(OCC3CCN(CC4CC4)CC3)ccnc2c1 equals > 100 nM
